Target: human CCR6 (Homo sapiens, UniProt P51684)
Construct: expressed in transfected cells; host or cells: HEK-293
Experiment: FLIPR assay (inhibition of CCL20-induced calcium signal)
Assay type: cell-based
Conditions: HEK-293 cells expressing human CCR6; mean values where determined several times; read-out: FLIPR IC50
pIC50: −log10 of the molar value.
If the reported pIC50 equals or exceeds 7, assign Y. If not, assign N.

>  <COMPOUND>
CC(C)c1ccc([C@](O)(c2cncc(-c3noc(COC(C)(C)C)n3)c2)C2(C)CN(C)C2)cc1 [Example 109]

>  <CATEGORY>
Y

$$$$
>  <COMPOUND>
CC(C)c1ccc(C(O)(c2cncc(C3CCCC3)c2)C2(C)CN(C)C2)cc1 (stereo not shown) [Example 291]

>  <CATEGORY>
Y

$$$$
>  <COMPOUND>
CCCc1ccc(C(O)(c2cncc(N3CCCC3)c2)C2(C)CN(C)C2)cc1 (stereo not shown) [Example 150]

>  <CATEGORY>
Y

$$$$
>  <COMPOUND>
CN1CC(C)([C@@](O)(c2cncc(-c3noc(C(C)(C)O)n3)c2)c2ccc3ccccc3c2)C1 [Example 533]

>  <CATEGORY>
N

$$$$
>  <COMPOUND>
CC(C)c1ccc([C@](O)(c2cncc(N3CCC(F)(F)C3)c2)C2(C)CN(C)C2)cc1 [Example 180]

>  <CATEGORY>
Y

$$$$

----------
Biological target: human CCR6 (Homo sapiens, UniProt P51684)
Construct: expressed in transfected cells; host or cells: HEK-293
Sequence (P51684 1-374): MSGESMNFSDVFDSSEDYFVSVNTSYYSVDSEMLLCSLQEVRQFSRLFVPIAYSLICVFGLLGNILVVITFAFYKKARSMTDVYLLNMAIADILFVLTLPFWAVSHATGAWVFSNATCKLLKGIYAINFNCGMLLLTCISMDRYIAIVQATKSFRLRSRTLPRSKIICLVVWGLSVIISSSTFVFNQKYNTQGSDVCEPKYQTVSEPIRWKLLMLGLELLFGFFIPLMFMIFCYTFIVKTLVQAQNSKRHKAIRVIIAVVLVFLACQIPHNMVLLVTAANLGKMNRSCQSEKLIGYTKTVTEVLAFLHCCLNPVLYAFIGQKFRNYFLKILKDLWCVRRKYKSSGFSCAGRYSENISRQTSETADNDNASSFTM
Assay: FLIPR assay (inhibition of CCL20-induced calcium signal)
Assay type: cell-based
Settings: HEK-293 cells expressing human CCR6; mean values where determined several times; read-out: FLIPR IC50
Reported IC50 by item:

>  <COMPOUND>
CC(C)c1ccc([C@](O)(c2cncc(COc3ccc(F)cc3)c2)C2(C)CN(C)C2)cc1

>  <IC50 [nM]>
15

$$$$
>  <COMPOUND>
CC(=O)N1CCC(OCc2cncc([C@@](O)(c3ccc(C(C)C)cc3)C3(C)CN(C)C3)c2)CC1

>  <IC50 [nM]>
292

$$$$
>  <COMPOUND>
CC(C)c1ccc([C@](O)(c2cncc(-c3noc(CCN(C)C(=O)CO)n3)c2)C2(C)CN(C)C2)cc1

>  <IC50 [nM]>
376

$$$$
>  <COMPOUND>
CC(C)c1ccc([C@](O)(c2cncc(-c3noc(C4CCN(S(C)(=O)=O)CC4)n3)c2)C2(C)CN(C)C2)cc1

>  <IC50 [nM]>
53.4

$$$$
>  <COMPOUND>
CC(C)c1ccc([C@](O)(c2cnnc(N3CCCC3=O)c2)C2(C)CN(C)C2)cc1

>  <IC50 [nM]>
164

$$$$
>  <COMPOUND>
CC(C)c1ccc([C@](O)(c2cncc(C3CCC(O)(C(C)C)C3)c2)C2(C)CN(C)C2)cc1 (stereo partly shown)

>  <IC50 [nM]>
80.6

$$$$
>  <COMPOUND>
CC(C)c1ccc([C@](O)(c2cncc(-c3noc(C(C)(C)O)n3)c2)C2(C)CN(C(C)C)C2)cc1

>  <IC50 [nM]>
100

$$$$
>  <COMPOUND>
CC(=O)N1CCc2nc(-c3cncc([C@@](O)(c4ccc(C(C)C)cc4)C4(C)CN(C)C4)c3)ncc2C1

>  <IC50 [nM]>
105

$$$$
>  <COMPOUND>
CC(C)c1ccc([C@](O)(c2cncc(-c3noc(CCn4cccn4)n3)c2)C2(C)CN(C)C2)cc1

>  <IC50 [nM]>
66.6

$$$$
>  <COMPOUND>
Cc1cc([C@](C)(O)C#Cc2cncc([C@@](O)(c3ccc(C(C)C)cc3)C3(C)CN(C)C3)c2)ncn1

>  <IC50 [nM]>
160

$$$$
>  <COMPOUND>
COC(C)(C)c1nc(-c2cncc([C@@](O)(c3ccc(C(C)C)cc3)C3(C)CN(C)C3)c2)no1

>  <IC50 [nM]>
43.1

$$$$
>  <COMPOUND>
CC(C)c1ccc([C@](O)(c2cncc(-c3noc(C4(C)CNC(=O)C4)n3)c2)C2(C)CN(C)C2)cc1 (stereo partly shown)

>  <IC50 [nM]>
92.3

$$$$
>  <COMPOUND>
CC(C)c1ccc([C@](O)(c2cncc(N3CC(c4cccc(C(C)C)n4)CC3=O)c2)C2(C)CN(C)C2)cc1 (stereo partly shown)

>  <IC50 [nM]>
25.9

$$$$
>  <COMPOUND>
CC(C)c1ccc([C@](O)(c2cncc(-c3nc(C(C)(C)CO)no3)c2)C2(C)CN(C)C2)cc1

>  <IC50 [nM]>
60

$$$$
>  <COMPOUND>
[2H]C([2H])([2H])C(=O)N(C)C1(c2nc(-c3cncc([C@@](O)(c4ccc(C(C)C)cc4)C4(C)CN(C)C4)c3)no2)CC1

>  <IC50 [nM]>
113

$$$$
>  <COMPOUND>
CC(C)c1ccc(C(O)(c2cncc(N3CC[C@H](C(C)C)C3)c2)C2(C)CN(C)C2)cc1 (stereo partly shown)

>  <IC50 [nM]>
29

$$$$
>  <COMPOUND>
CC(C)c1ccc([C@](O)(c2cncc(-n3cc(C4CCOCC4)nn3)c2)C2(C)CN(C)C2)cc1

>  <IC50 [nM]>
222

$$$$
>  <COMPOUND>
CC(C)c1ccc([C@](O)(c2cncc(N3CCC(C(C)C)C3=O)c2)C2(C)CN(C)C2)cc1 (stereo partly shown)

>  <IC50 [nM]>
38.4

$$$$
>  <COMPOUND>
CC(C)c1ccc(C(O)(c2cncc(C3=CC(O)CC3)c2)C2(C)CN(C)C2)cc1 (stereo not shown)

>  <IC50 [nM]>
82.4

$$$$
>  <COMPOUND>
CC(C)c1ccc([C@](O)(c2cncc(-c3noc(CN4C(=O)CC(C)(C)C4=O)n3)c2)C2(C)CN(C)C2)cc1

>  <IC50 [nM]>
73.1

$$$$
>  <COMPOUND>
CC(C)c1ccc([C@](O)(c2cncc(C#CC(C)(C)N3CCCC3=O)c2)C2(C)CN(C)C2)cc1

>  <IC50 [nM]>
44.8

$$$$
>  <COMPOUND>
CCN1CC(c2nc(-c3cncc([C@@](O)(c4ccc(C(C)C)cc4)C4(C)CN(C)C4)c3)no2)CC1=O (single isomer, unassigned) [Example 511]

>  <IC50 [nM]>
133

$$$$
>  <COMPOUND>
CC(C)c1ccc([C@](O)(c2cncc(N3C[C@H]4C[C@@H]3CO4)c2)C2(C)CN(C)C2)cc1

>  <IC50 [nM]>
283

$$$$
>  <COMPOUND>
CC1([C@](O)(c2ccc(OC(F)(F)F)cc2)c2cncc(N3CCCC3)c2)CN(CC(F)F)C1

>  <IC50 [nM]>
130

$$$$
>  <COMPOUND>
CC(=O)N1CCC(c2nc(-c3cncc([C@@](O)(c4cc(F)c(C(C)C)c(F)c4)C4(C)CN(C)C4)c3)no2)CC1

>  <IC50 [nM]>
85.6

$$$$
>  <COMPOUND>
CC(C)c1ccc([C@](O)(c2cncc(C#CC(O)C3CCOCC3)c2)C2(C)CN(C)C2)cc1 (stereo partly shown)

>  <IC50 [nM]>
44.6

$$$$
>  <COMPOUND>
Cc1cccc(C(C)(O)C#Cc2cncc([C@@](O)(c3ccc(C(C)C)cc3)C3(C)CN(C(C)C)C3)c2)n1 (stereo partly shown)

>  <IC50 [nM]>
40.4

$$$$
>  <COMPOUND>
COc1cc(C(C)(O)C#Cc2cncc([C@@](O)(c3ccc(C(C)C)cc3)C3(C)CN(C)C3)c2)nc(C)n1 (single isomer, unassigned) [Example 630]

>  <IC50 [nM]>
61.1

$$$$
